System: CEM cells HIV-1 protection, formazan growth assay
experiment: NCI AIDS Antiviral Assay;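 active = compounds giving half or more protection of infected cells from virus-caused growth loss, again on retest; inactive = the rest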
Classes used: active, inactive

COc1cccc2c1C1(O)C2CCCCCCCCCC12OCCCO2 (centres undefined) = inactive
O=S1(=O)OCCOS(=O)(=O)C1Cc1nc2ccccc2[nH]1 = inactive
CC1(c2ccc(Cl)cc2)c2ccccc2C(=O)N1CCCN1C(=O)c2ccccc2C1=O (centres undefined) = inactive
CN(C)c1cccc2c1C(=O)C=CC21CCc2ccc(N(C)C)c3c(N(C)C)ccc1c23 (centres undefined) = inactive
CC(NC(=O)C1CCCN1C(=O)OCc1ccccc1)C(=O)O (centres undefined) = inactive
N#CC(C#N)=CNC(=S)Nc1ccc(Cl)c(Cl)c1 = inactive
CCC1(O)C(=O)OCc2c1cc1n(c2=O)Cc2cc3cc(N)ccc3nc2-1 (centres undefined) = inactive
CC(C)COP(C)(=O)C(N)(C(F)(F)F)C(F)(F)F (centres undefined) = inactive
COc1ccc(/C=C2\Oc3cc(OC(C)=O)ccc3C2=O)cc1 = inactive
N#CCCN(CCC#N)c1ccc(/C=C2\N=C(c3cc([N+](=O)[O-])ccc3Cl)N(NC(=O)CC(=O)Nc3ccccc3Cl)C2=O)cc1 = inactive
CCOCCN(CCOCC)C(=O)c1ccc2c(c1)no[n+]2[O-] = inactive
COc1cc2c(c(C)c1O)[C@H]1Cc3ccccc3[C@H]1O2 = inactive
Cc1n[nH]c(=O)n1C1CCCC1 = inactive
O=C1C(S(=O)(=O)c2ccccc2)=C(CS(=O)(=O)c2ccccc2)[C@@H](OCc2ccccc2)[C@@H]1OCc1ccccc1 = inactive
O=C(Nc1ccn(CCO)c(=O)n1)c1ccccc1 = inactive
CCOC(=O)C1=C(NC(C)(C)C)OC/C1=N\NC(=O)Cc1ccccc1 = inactive
Cc1cc(=O)[nH]c(NN2C(Cl)C(=O)C2c2ccco2)n1 (centres undefined) = inactive
N#C/C(=C1\SC(=O)CN1c1ccc(Cl)cc1)c1nc2ccccc2o1 = inactive
CCCCCCCCOC(=O)CC(C(=O)OCCCCCCCC)S(=O)(=O)O (centres undefined) = inactive
Fc1ccc2nncc(SCc3ccccc3Cl)c2c1 = inactive
Cc1cccc2c1CCC21OC(=O)c2c1cc(F)c1ccccc21 (centres undefined) = inactive
CC(=O)[O-].O=S(=O)(Nc1ncccn1)c1ccc(N=Cc2ccccc2O)cc1.O=S(=O)(Nc1ncccn1)c1ccc(N=Cc2ccccc2O)cc1.[Co+2] = inactive
Cc1ccc(S(=O)(=O)N/N=C2\CC3C4CCC3C2C4)cc1 (centres undefined) = inactive
Cc1nc(Nc2ccccc2Cl)sc1C(=O)CC(=O)C(N)=O = inactive
O=C1/C(=C/c2ccc(Cl)cc2)CCCc2ccccc21 = inactive
C[C@]12CCC[C@](C)(C(=O)O)[C@@H]1CC[C@@]13C[C@@H](CC[C@@H]12)[C@@H](C(=O)O)C3 = inactive
O=C(Nc1cc2cc([N+](=O)[O-])ccc2oc1=O)c1cccs1 = inactive
Cc1c(C)c(C)c(-n2[nH]c(=O)n(C)c2=O)c(C)c1C = inactive
O=C(Nc1nc(=S)c2c(ncn2CCO)[nH]1)c1ccccc1 = inactive
Cc1ccsc1/C=N/Nc1cc(C)c2cccc(C)c2n1 = inactive
Cc1ccc(S(=O)(=O)N(CCC(=O)O)c2ccccc2)cc1 = inactive
CC(C)C[S+]1C2=C([O-])CC(C)(C)CC2=Nc2ccccc21 (centres undefined) = inactive
N#CC1(C#N)C(C#N)(C#N)C12CCCCC2 = inactive
O=[N+]([O-])c1ccc(NN=C2CN3CCN(C2)c2ccccc23)c([N+](=O)[O-])c1 = inactive
CCOP(=O)(OCC)C(Nc1ccc(F)cc1)c1cccc([N+](=O)[O-])c1 (centres undefined) = inactive
N=C(N)SSC(=N)N = active
O=[N+]([O-])c1ccc(O)c(C=NCC2CCCN3CCCCC23)c1 (centres undefined) = inactive
Nc1ccn(C2CC(F)C(CO)S2)c(=O)n1 (centres undefined) = inactive
Cc1ccc(NC(=O)CC/C(CC(=O)C(C)(C)C)=N/NC(=O)C[N+](C)(C)C)cc1C = inactive
COC(=O)c1nn(-c2ccccc2)c(=O)cc1N=[N+]=[N-] = inactive
N#C/C(=C\c1ccccc1)c1ccccc1[N+](=O)[O-] = inactive
COc1ccc(/C=N/NS(=O)(=O)c2ccc(NC(C)=O)cc2)cc1 = inactive
COc1cc(NC=O)c2c(c1)SCCC(=O)N2 = inactive
O=C(Cn1cc(Br)c(=O)[nH]c1=O)c1ccc(-c2ccccc2)cc1 = inactive

Hello, the source for this data is PubChem BioAssay AID179, in case you need it.
